# TEST_DESCRIPTION: Tacrolimus whole blood pharmacokinetics after oral gavage in mice (HPLC-MS/MS, population PK model)
# MEASUREMENT_SETUP: mouse, whole blood, po, 3 mg/kg, TAC AUC (population PK-derived), mice treated with TAC solely, 3 mg/kg oral 5 days, steady-state
REPORTED_METRIC: AUC

The recorded AUC for "C=CC[C@@H]1/C=C(\C)C[C@H](C)C[C@H](OC)[C@H]2O[C@@](O)(C(=O)C(=O)N3CCCC[C@H]3C(=O)O[C@H](/C(C)=C/[C@@H]3CC[C@@H](O)[C@H](OC)C3)[C@H](C)[C@@H](O)CC1=O)[C@H](C)C[C@@H]2OC" is 195 ng·h/mL

----------
# TEST_DESCRIPTION: Tacrolimus whole blood pharmacokinetics after oral gavage in mice (HPLC-MS/MS, population PK model)
# MEASUREMENT_SETUP: mouse, whole blood, po, TAC AUC (population PK-derived), TAC + ZSQ mice; ZSQ 30 mg/kg oral 15 min before last TAC administration
REPORTED_METRIC: AUC (ng·h/mL)
Give a bare numeral; the unit ng·h/mL is implied.

// sample "C=CC[C@@H]1/C=C(\C)C[C@H](C)C[C@H](OC)[C@H]2O[C@@](O)(C(=O)C(=O)N3CCCC[C@H]3C(=O)O[C@H](/C(C)=C/[C@@H]3CC[C@@H](O)[C@H](OC)C3)[C@H](C)[C@@H](O)CC1=O)[C@H](C)C[C@@H]2OC" , its AUC was 354

----------
# TEST_DESCRIPTION: Tacrolimus whole blood pharmacokinetics after oral gavage in mice (HPLC-MS/MS, population PK model)
# MEASUREMENT_SETUP: mouse, whole blood, po, 3 mg/kg, TAC AUC (population PK-derived), ATB-treated mice (TAC + ATB), 3 mg/kg oral 5 days, steady-state
REPORTED_METRIC: AUC (ng·h/mL)
Write it as a number; the unit ng·h/mL goes unstated.

The compound listed as C=CC[C@@H]1/C=C(\C)C[C@H](C)C[C@H](OC)[C@H]2O[C@@](O)(C(=O)C(=O)N3CCCC[C@H]3C(=O)O[C@H](/C(C)=C/[C@@H]3CC[C@@H](O)[C@H](OC)C3)[C@H](C)[C@@H](O)CC1=O)[C@H](C)C[C@@H]2OC [TAC, tacrolimus] has a reported AUC of 131

----------
# TEST_DESCRIPTION: Tacrolimus whole blood pharmacokinetics after oral gavage in mice (HPLC-MS/MS, population PK model)
# MEASUREMENT_SETUP: mouse, whole blood, po, TAC AUC (population PK-derived), TAC + ZSQ + ATB mice; ZSQ 30 mg/kg oral 15 min before last TAC administration
REPORTED_METRIC: AUC (ng·h/mL)
Just the number in ng·h/mL, nothing appended.

Notebook: "C=CC[C@@H]1/C=C(\C)C[C@H](C)C[C@H](OC)[C@H]2O[C@@](O)(C(=O)C(=O)N3CCCC[C@H]3C(=O)O[C@H](/C(C)=C/[C@@H]3CC[C@@H](O)[C@H](OC)C3)[C@H](C)[C@@H](O)CC1=O)[C@H](C)C[C@@H]2OC" , AUC read as 618
